// data source = PubChem BioAssay (NCI)

system: ACHN renal; experiment: NCI-60 one-dose screen, 48 h (100 = growth as untreated, 0 = no growth, -100 = all killed); details: 10 µM unless noted
The panel holds about 83,000 compounds, 20% with a hit somewhere; the sample as a whole holds those more often.
measured-endpoint: growth (%)
Lab book: enter the figure in %, no units written.

Below, 4 molecules whose answers are already recorded.
molecule	measured-endpoint	unit-spec	measurement
Cc1c(N2CCCCC2)[nH]c2ccccc12	growth	%	115
COc1cccc(NC(=O)c2sc3nc(C)c(C(=O)c4ccccc4)cc3c2N)c1	growth	%	96.6
O=C1C(Nc2ccc(Br)cc2)=C(I)C(=O)c2ncccc21	growth	%	-20.1
CC(C)(C)CC(C)(C)Nc1c(-c2c(O)c3ccccc3oc2=O)nc2sccn12	growth	%	99.8

Would you kindly look at the next entry?
**Query** Return reported growth; argument: "O=C(/C=C/c1ccc([N+](=O)[O-])cc1)c1cccc(Nc2nc(Nc3ccccc3)nc(Nc3ccccc3)n2)c1"
**Result** 80

###

system: EKVX NSCLC; test: NCI-60 one-dose screen, 48 h (100 = growth as untreated, 0 = no growth, -100 = all killed); settings: 10 µM unless noted
The panel holds about 83,000 compounds, 20% with a hit somewhere; the sample as a whole holds those more often.
Measured growth, listed per entry.
Lab book: enter the figure in %, no units written.

compound	measured-endpoint	unit-spec	measurement
C=CCNc1ccc2c3c(cccc13)C(=O)N(CC=C)C2=O	growth	%	99.2
CC(C)c1nc(N(C)S(C)(=O)=O)nc(-c2ccc(F)cc2)c1/C=C/C(=O)C[C@@H](O)CC(=O)O	growth	%	107

**Query** Return reported growth; argument: "COc1cc(-c2ccc(-c3ccc(C(=N)N)s3)s2)cc(OC)c1OC"
**Result** 74.4

**Query** Same for "CCN1CCN(C(=O)[C@]23CC[C@@H](C)[C@H](C)[C@@H]2C2=CC[C@@H]4[C@@]5(C)C/C(=C/c6ccncc6)C(=O)C(C)(C)[C@@H]5CC[C@@]4(C)[C@]2(C)CC3)CC1"
**Result** 43.7

**Query** Same for "Cc1c(N2CCCCC2)[nH]c2ccccc12"
**Result** 117

**Query** Same for "O=c1ccc2c(ccc3ncccc32)o1"
**Result** 118

**Query** Same for "COc1cc(/C=N/NC(=O)c2ccc3nc(-c4ccc(Cl)cc4)[nH]c3c2)cc(OC)c1OC"
**Result** 95.8

###

Tested on: LOX IMVI melanoma
Experiment: NCI-60 one-dose screen, 48 h
Details: 10 µM unless noted
Description: Growth inhibition of the LOX IMVI human tumor cell line is measured as a screen for anti-cancer activity. Cells are grown in 96 well plates and exposed to the test compound for 48 hours. Compounds are tested at a single concentration, which is 10^-5 M for most compounds. The reported endpoint is percent growth (GI% or GIPRCNT), where numbers from 0 - 100% represent growth inhibition, and numbers from -100% - 0 represent cell death. For example, a value of 40 represents 60% growth inhibition. […]
This is part of a sample that, as a whole, favours compounds with a hit. Of some 83,000 tested, about 20% had one in any assay. The source made the active and inactive calls. How the source made its calls: active means growth percent below 10; inactive means the rest.
I would appreciate it if you answered using one of these outcomes: active, inactive

Illustrative cases are given below, each with its answer.
compound	group-label
O=C1c2c(c3c4cccnc4[nH]c3c3ccc4ccccc4c23)C(=O)N1O	active
NC(=O)[C@@H]1Cc2ccccc2CN1C(=O)c1ccc2c(c1)Cc1ccccc1-2	inactive
Cc1ccc(-c2nnc(SCc3nc(N)nc(Nc4ccccc4F)n3)n2-c2ccccc2)cc1	inactive
CC(Cc1cccc2ccccc12)C(N)=O (stereo not given)	inactive
CS(=O)(=O)Nc1cc(-c2ccc3ncnc(Nc4cccc(Cl)c4)c3c2)cnc1Cl	active

**Query** Dear colleague, could you share the recorded outcome for "O=C(NCCN1CCOCC1)c1cncnc1Nc1ccc2c(ccn2Cc2ccccn2)c1" when you have a moment?
**Result** inactive

**Query** Same for "CCOC(=O)c1c(NC(=S)Nc2ccc([N+](=O)[O-])cc2)sc2c1CCCCC2"
**Result** inactive

**Query** Same for "O=C(Nc1ncc(Cc2cc(C(F)(F)F)ccc2Cl)s1)C(=S)N1CCOCC1"
**Result** inactive

**Query** Same for "O=C(COc1ccc(/C=C2\Oc3ccccc3C2=O)cc1)Nc1nccs1"
**Result** inactive

**Query** Same for "Cn1cc(-c2csc(-c3cn(C)c4ccc(F)cc34)n2)c2cnccc21"
**Result** active

###

test system: OVCAR-4 ovarian; experiment: NCI-60 one-dose screen, 48 h (100 = growth as untreated, 0 = no growth, -100 = all killed); conditions: 10 µM unless noted
The panel holds about 83,000 compounds, 20% with a hit somewhere; the sample as a whole holds those more often. Activity calls are given as the source filed them. The calls were made as follows: active = growth percent below 10; inactive = the rest.
Measured growth, listed per entry.

molecule	growth
COc1ccc(/C=N\NC(=O)c2ccc3nc(-c4ccc(Cl)cc4)[nH]c3c2)cc1	-30.6% (active)

**Query** Recall the recorded growth for "COC(=O)c1c(C)nc(C)c2c1C(=O)C(Br)=C(NCCCCO)C2=O" with OVCAR-4 ovarian and state it.
**Result** 38.4% (inactive)

**Query** Same for "COc1cc(OC)cc(C(=O)Nc2cnc(Nc3ccc(N4CCOCC4)nc3)nc2Oc2ccc(C(F)(F)F)cc2)c1"
**Result** 8.78% (active)

**Query** Same for CCN1C(=O)N(CC)C2C1NN=c1s/c(=C3\C(=O)N(C)c4ccccc43)c(=O)n12 (stereo not given)
**Result** 52% (inactive)

**Query** Same for CC1=NC(=S)NC(c2ccccc2)/C1=C1/CC(c2ccccc2O)NN1 (stereo not given)
**Result** 101% (inactive)

###

test system: HOP-92 NSCLC; assay: NCI-60 one-dose screen, 48 h (100 = growth as untreated, 0 = no growth, -100 = all killed); details: 10 µM unless noted
About 83,000 compounds went through this panel and 20% of them were active in at least one assay; those are over-represented in the sample as a whole.
measured-endpoint: growth (%)
Lab book: enter the figure in %, no units written.

1) Nc1ncc(-c2ccc3ncnc(N4CCc5cc(F)c(Cl)cc54)c3c2)cc1C=O -22.8
2) Cc1ccc(C(=O)Nc2ccc(CN3CCN(C)CC3)c(C(F)(F)F)c2)cc1C#Cc1cnc(N)c2ccccc12 -14.8
3) COc1cc(-c2c(-c3ccccc3)c[nH]c2C(=O)NCCCO)c(OC)c2c1OCO2 97
4) CC/C(=C(/c1ccc(Cl)cc1)c1ccc(OCCN2CCCCCC2)cc1)c1ccccc1 80.3

**Query** Recall the recorded growth for "Cc1ccc(-c2nnc(SCc3nc(N)nc(Nc4ccccc4F)n3)n2-c2ccccc2)cc1" with HOP-92 NSCLC and state it.
**Result** 67.3

**Query** Same for "Nc1ccc(Cl)c2c(=O)c3ccccc3[nH]c12"
**Result** 99.4

**Query** Same for "CN1CCN(Cc2ccc(NC(=O)c3cncc(C#Cc4c(N)ncc5c(F)cccc45)c3)cc2C(F)(F)F)CC1"
**Result** -58.8

**Query** Same for "c1ccc2c(-c3cnn4cc(-c5ccc(N6CCNCC6)cc5)cnc34)ccnc2c1"
**Result** -59.2

**Query** Same for "N#C/C(Sc1nc2sc3c(c2c(=O)n1Cc1ccccc1)CCCC3)=C1/SC=C(c2ccc(Cl)cc2)N1c1ccccc1"
**Result** 68.6

###

Test system: HOP-92 NSCLC
Test: NCI-60 one-dose screen, 48 h
Conditions: 10 µM unless noted
Procedure: Growth inhibition of the HOP-92 human Non-Small Cell Lung tumor cell line is measured as a screen for anti-cancer activity. Cells are grown in 96 well plates and exposed to the test compound for 48 hours. Compounds are tested at a single concentration, which is 10^-5 M for most compounds. The reported endpoint is percent growth (GI% or GIPRCNT), where numbers from 0 - 100% represent growth inhibition, and numbers from -100% - 0 represent cell death. […]
This is part of a sample that, as a whole, favours compounds with a hit. Of some 83,000 tested, about 20% had one in any assay. Activity calls are given as the source filed them. How the source made its calls: active means growth percent below 10; inactive means the rest.
I would appreciate it if you answered using one of these outcomes: active, inactive

**Query** Dear colleague, could you share the recorded outcome for "CC(=O)c1ccc(Nc2nccc(-c3ccc(Cl)cc3)n2)cc1" when you have a moment?
**Result** inactive

**Query** Same for "CCOC(=O)/C(=C\c1ccccc1Cl)P(=O)(OCC)OCC"
**Result** inactive

**Query** Same for Nc1nc(N)c2c(n1)NC(c1cccc(Nc3ccnc4cc(C(F)(F)F)ccc34)c1)CC(c1ccc(Cl)cc1)=N2 (stereo not given)
**Result** inactive

**Query** Same for "CCCNNC(=O)c1ccc(CNC(=O)/C=C/c2ccccc2)cc1"
**Result** inactive

**Query** Same for "N/C(=N\c1nc2ccccc2s1)NC(=O)Nc1ccccc1"
**Result** inactive

**Query** Same for "Fc1ccc(/C=C/c2cc(/C=C/c3ccc(F)cc3)n(-c3cc(F)cc(F)c3)n2)cc1"
**Result** inactive

**Query** Same for "Cc1cc([N+](=O)[O-])ccc1NC(=O)c1ccc2c(c1)nc(-c1ccccc1)n2C1CCCCC1"
**Result** inactive

**Query** Same for "C=C(C)[C@@H]1CC[C@]2(COCCCNCCCN)CC[C@]3(C)[C@H](CC[C@@H]4[C@@]5(C)CC[C@H](OCCCN)C(C)(C)[C@@H]5CC[C@]43C)[C@@H]12"
**Result** inactive
